Would you mind telling me the reported inhibition of each entry?
Protocol details: growth suppression of yeast trafficking mutant, preliminary HTS, modulators of trafficking downstream of Golgi apparatus project, 1536-format plate, OD 615 nm (AID 637)
Condition info: yeast transport mutant growth, absorbance 615 nm, 18 h; stronger effect = higher value
Answers are plain numbers, in %.

Known results for compounds:
compound="Cc1ccc(S(=O)(=O)N2CCN(S(C)(=O)=O)C2c2ccccc2)cc1 (stereo not given)" unit_string=% value_observed=0
compound=Cn1c(=O)c2c(nc(SCCCC#N)n2Cc2ccccc2F)n(C)c1=O unit_string=% value_observed=-3.67
compound=COCCn1c(NCc2ccc(C)cc2)nc2c1c(=O)[nH]c(=O)n2C unit_string=% value_observed=-1.29
compound="CCCOC(=O)c1[nH]c2c(c1C)C(=O)CC(c1ccc(OC)c(OC)c1)C2 (stereo not given)" unit_string=% value_observed=-11.2
compound="O=C(CCN1C(=O)C2C3C=CC(C3)C2C1=O)NCCc1ccccc1Cl (stereo not given)" unit_string=% value_observed=-5.08

I have 7 compounds here; please give me inhibition for each one.
1. Cc1cccc(C)c1NC(=O)CS(=O)CC(=O)NC1CCCc2ccccc21 (stereo not given)
2. O=C(NCc1cccs1)C1CCCN(c2ncccn2)C1 (stereo not given)
3. O=C(Nc1ccccc1-c1ccccc1)NC1CCN(CC(=O)N2CCOCC2)CC1
4. COC(=O)c1cc(OC)c(OC)cc1NC(=O)CCC1CCCC1
5. Cc1sc(NC(=O)CSc2nc(N)n(CC(=O)c3ccccc3)n2)c(C#N)c1C
6. CN(C(=O)COC(=O)C1CCN(S(=O)(=O)c2cccs2)CC1)C1CCS(=O)(=O)C1 (stereo not given)
7. O=C(c1ccco1)N1CCN(C(=O)C2CCN(S(=O)(=O)c3cccc4nsnc34)CC2)CC1

output:
-4.59
-1.94
-3.11
9.05
-6.83
-7.74
-1.48

----------
Protocol details: SK-BR-3 cell growth inhibitors, pilot screen, 24 h, human (AID 572);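 also: compound exposure lasted between 18 and 24 h rather than exactly 24 h; 100% = carrier-treated control wells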
Condition info: SK-BR-3 viability, CellTiter-Glo luminescence, at 10 µM, stronger effect = lower value
Reported property: viability (%)
Numbers only, in %.

molecule=CCn1c(=O)n(CC(=O)N(C)Cc2ccccc2)c(=O)c2ccccc21 value_observed=110
molecule="CCCC(O)(CCN(C)C)c1ccc(OC)cc1 (stereo not drawn)" value_observed=89
molecule=COc1ccccc1OCC(=O)NCC1CCCCC1 value_observed=94.5

I would be grateful if you could provide viability for each of the following entries.
1. CCOC(=O)COc1ccc(C2NC(C(=O)O)CS2)cc1 (stereo not drawn)
2. CCN(C(=O)c1cc(Cl)ccc1OC)C1CCCCC1

output:
1: 94.5; 2: 86.5

// for each molecule in input: emit viability
1. CC(C)Cc1nc(S(=O)(=O)c2ccc(Cl)cc2)c(N2CCOCC2)o1
2. O=C(O)Cn1cc2c(n1)CCCC2
3. CC(=O)c1cccc(NC(=O)N2CCCC2C(=O)NCc2ccc(C)cc2)c1 (stereo not drawn)
4. CCN1C(=O)CC(C(=O)Nc2ccc(F)cc2)SC1=Nc1ccc2c(c1)OCO2 (stereo not drawn)
5. CN(C)S(=O)(=O)c1ccc(C(=O)N2CCC(c3nc4ccccc4o3)CC2)cc1

output:
1: 128; 2: 96; 3: 104; 4: 136; 5: 82

Report viability for each item below.
1. CC1Cc2ccccc2N1S(=O)(=O)c1cccc(C(=O)OCC(=O)NC2CCS(=O)(=O)C2)c1 (stereo not drawn)
2. O=C(NCc1ccco1)c1cc2n(n1)C(C(F)(F)F)CC(c1ccc(F)cc1)N2 (stereo not drawn)
3. CCC(NS(=O)(=O)c1ccc(C)cc1)C(=O)N1CCC2(O)CCCCC2C1 (stereo not drawn)
4. CCCCCC1CC(CC(C)C(=O)Nc2nncs2)C(=O)O1 (stereo not drawn)

output:
88
120
94
90.5

Parameters: items (list). Returns: viability for each item.
1. COC(=O)C1=C(N)Oc2cc(C)[nH]c(=O)c2C1c1ccncc1 (stereo not drawn)
2. Cc1csc(SCc2nc3sc4c(c3c(=O)[nH]2)CCC4)n1
3. Cc1ccc(CNC(=O)CSc2n[nH]c(N)n2)cc1
4. O=C(O)CC1CCCC(c2ccccc2)C1=O (stereo not drawn)
5. CCN(CC)CCNC(=O)CCn1c(=S)[nH]c2cc3c(cc2c1=O)OCO3
6. CCOC(=O)c1c(C)[nH]c(C)c1C(=O)COc1ccc(NC(=O)c2ccco2)cc1
7. COC(=O)c1cc(O)c(OCc2ccccc2)c(O)c1

output:
[132, 116, 100, 97, 79, 88.5, 88]

Record viability for all entries; do not skip any.
1. CSCSC1=C(C#N)C(c2ccc(Cl)cc2)C(C(C)=O)=C(C)N1 (stereo not drawn)
2. COC(=O)c1ccccc1NC(=O)c1cc(-c2ccc(OC)c(OC)c2)on1

output:
[106, 99]

----------
Protocol details: reversal of MRP1-mediated doxorubicin resistance, pilot screen, H69AR cells, doxorubicin co-treatment (AID 601)
Condition info: H69AR cells + 2 uM doxorubicin, CellTiter-Glo, 72 h; at 10 µM; stronger effect = higher value
Consider the following compounds; for each one, report its differential viability (reversal).
Numbers only, in %.

compound=COc1cccc(Cn2c(Oc3ccccc3)nc3c2c(=O)n(C)c(=O)n3C)c1 reported_property="differential viability (reversal)" unit_string=% value_observed=3.32

Take each entry in turn and give its differential viability (reversal).
1. O=C(Cn1nnc(-c2cccc(C(F)(F)F)c2)n1)NC(=O)NCc1ccco1
2. CCn1c(CC(=O)Nc2cccc(OC)c2)nnc1SCC(=O)Nc1nccs1
3. CCOC(=O)c1c(NC(=O)c2cccs2)sc(C)c1C
4. CCOC(=O)CC(=O)CSc1[nH]c(=O)cc(C)c1C#N
5. CCN(C(=O)CCc1nc(-c2ccccc2F)no1)c1cc(OC)ccc1OC
6. O=C(CCc1nc2ccccc2s1)OCC(=O)N1CCN(C(=O)c2ccco2)CC1
7. O=C(Nc1ccccc1C(=O)N1CCN(c2ccccc2)CC1)c1ccco1

output:
-3.41
4.37
2.64
4.69
-2.4
3.61
5.93

----------
For each record, write down the corresponding differential viability (reversal).
Protocol details: reversal of MRP1-mediated doxorubicin resistance, pilot screen, H69AR cells, doxorubicin co-treatment (AID 601)
Condition info: H69AR cells + 2 uM doxorubicin, CellTiter-Glo, 72 h; at 10 µM; stronger effect = higher value
Answers are plain numbers, in %.

compound=Cc1nnc(NC(=O)Nc2cccc(Cl)c2)s1 reported_property="differential viability (reversal)" value_observed=-21

Return reported differential viability (reversal) values for all items listed beneath this line.
1. COc1ccc(N2CCN(C(c3cccc(OC)c3OC)c3nnnn3C3CCCC3)CC2)cc1 (stereo unspecified)
2. CCOc1ccc(C2CC(c3cccc(C)c3)n3ncnc3N2)cc1 (stereo unspecified)
3. Cc1nn(-c2ccc(F)cc2)c2nc(N)c(C#N)c(-c3cccs3)c12
4. Cc1ccc(OCC(=O)NCCN2CCCC2)cc1
5. Cc1c(C(=O)OC2CCCCC2)[nH]c2c1C(=O)CC(C)(C)C2
6. CC1=C(C(=O)OCc2ccccc2)C(c2ccc(C)o2)C2=C(CCCC2=O)N1 (stereo unspecified)
7. CCn1ncc(C2=NOC(C(=O)NCc3ccccc3)C2)c1C (stereo unspecified)

output:
[-0.405, 18, 4.98, 9.56, -3.71, 13.5, -33]

For each entry beneath this line, provide reported differential viability (reversal).
1. CCC(=O)N(Cc1cc2c(C)ccc(C)c2[nH]c1=O)C1CCCCC1
2. CC1(C)Cc2c(c(N3CCOCC3)nc3sc(C#N)c(N)c23)CS1
3. CC1CCN(C(=O)C2CCN(S(=O)(=O)c3cnc[nH]3)CC2)CC1
4. N#CC1=C(N)S[C@H](C(=O)C23CC4CC(CC(C4)C2)C3)[C@H]1c1ccncc1
5. CC1=CC=CC2=NC(=O)CC(C)(C(=O)N(CC(=O)NC(C)C)C3CCCC3)N12 (stereo unspecified)
6. COC(=O)C1CCN(C(=O)c2sc3nc(-c4ccc(F)cc4)cn3c2C)CC1
7. CCCCC(CC)CNC(=O)C1CCCN(S(=O)(=O)c2cnc[nH]2)C1 (stereo unspecified)

output:
[-0.72, -1.22, 7.72, 47.6, -6.48, 22.1, -1.91]

----------
I'd appreciate it if you could supply viability values for the items below.
Protocol details: reversal of MRP1-mediated doxorubicin resistance, pilot screen, H69AR cells, doxorubicin co-treatment (AID 601)
Condition info: H69AR cells, CellTiter-Glo, 72 h; compound alone cytotoxicity; at 10 µM
Numbers only, in %.

compound=CCOc1cc(S(=O)(=O)N2CCC(Cc3ccccc3)CC2)c(OCC)cc1-n1cnnn1 reported_property=viability value_observed=99.7
compound=Cc1cc2ncc(C(=O)Nc3ccccc3)c(C)n2n1 reported_property=viability value_observed=99.5
compound=Cc1cc(C)c2c(n1)nn1c(N3CCOCC3)cc(C)nc21 reported_property=viability value_observed=87.1

Return reported viability values for all items listed beneath this line.
1. Cc1ccc(C(C)C)c(OCCn2c(=O)oc3ccccc32)c1
2. Cc1ccc(Cn2nnc3c(=O)n(CC(=O)NCC4CCCO4)cnc32)cc1 (stereo unspecified)

output:
95.8
104
